assay: log P by HPLC on reversed-phase column (C18), EEC Directive 79/831 Annex V.A8; format: physicochemical; conditions: logP Method A
Would you mind telling me the reported logP of each entry?
Note: the reply should be a number with no unit written.

logP in this record for Fc1cccc(Oc2cnc3c(F)c(F)ccc3n2)c1Br [IIb.15] : 3.97

logP in this record for Cc1nc2c(F)c(F)ccc2nc1Oc1cc(C#N)ccc1Br [IIb.20] : 4.03

logP in this record for Fc1ccc2nc(Oc3ccccc3Br)cnc2c1F [IIb.01] : 3.92
